# TARGET ENTITY: human vasopressin V1a receptor (Homo sapiens, UniProt P37288)
# Construct: expressed in transfected cells; host or cells: CHO-K1 (cell line hV1a_5_CHO), membrane preparation
# Sequence (P37288 whole entry): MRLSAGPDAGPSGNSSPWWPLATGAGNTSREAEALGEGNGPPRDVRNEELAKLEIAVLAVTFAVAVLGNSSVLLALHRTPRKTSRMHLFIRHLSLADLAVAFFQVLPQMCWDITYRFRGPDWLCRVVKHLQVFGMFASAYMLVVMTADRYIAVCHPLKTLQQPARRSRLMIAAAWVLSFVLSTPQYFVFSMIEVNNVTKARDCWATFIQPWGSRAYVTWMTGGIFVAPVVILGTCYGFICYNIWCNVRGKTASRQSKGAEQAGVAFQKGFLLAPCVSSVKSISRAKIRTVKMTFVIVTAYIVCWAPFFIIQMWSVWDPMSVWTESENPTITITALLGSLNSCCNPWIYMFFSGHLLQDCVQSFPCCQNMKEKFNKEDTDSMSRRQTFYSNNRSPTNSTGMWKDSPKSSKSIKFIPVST
# PROTOCOL TEXT: Vasopressin V1a receptor binding assay
# RECORDED CONDITIONS: selectivity quotient, human receptors
REPORTED PROPERTY: Ki(h − V1a)/Ki(h − V1b)*

Known Ki(h − V1a)/Ki(h − V1b)* results, listed for orientation:
> print(dat)
                                   molecule         reported.property  recorded.measurement
1  CCOc1ncccc1C1(NC(=O)N2CCN(C3CCN(CC)CC3)CC2)C(=O)N(S(=O)(=O)c2ccccc2)c2cc(F)c(Cl)cc21 (stereo not drawn)  Ki(h − V1a)/Ki(h − V1b)*            + (10-<25)
2  CCOc1ncccc1C1(NC(=O)N2CCN(C3CCN(CC)CC3)CC2)C(=O)N(S(=O)(=O)c2ccc(OC)cc2OC)c2cc(F)c(F)cc21 (stereo not drawn)  Ki(h − V1a)/Ki(h − V1b)*             +++ (>75)
3  CCOc1ncccc1C1(OC(=O)N2CCN(C3CCN(C)CC3)CC2)C(=O)N(S(=O)(=O)c2ccccc2)c2cc(F)c(C#N)cc21 (stereo not drawn)  Ki(h − V1a)/Ki(h − V1b)*            + (10-<25)
4  CCOc1ncccc1C1(NC(=O)N2CCN(C3CCN(C)CC3)CC2)C(=O)N(S(=O)(=O)c2ccccc2)c2cc(F)c(Cl)cc21 (stereo not drawn)  Ki(h − V1a)/Ki(h − V1b)*            + (10-<25)

Let's switch to this molecule now.
Look up and state reported Ki(h − V1a)/Ki(h − V1b)* for CCOc1ncccc1C1(OC(=O)N2CCN(C3CCN(C)CC3)CC2)C(=O)N(S(=O)(=O)c2ccc(OC)cc2OC)c2cc(F)c(C#N)cc21 (stereo not drawn)
+++ (>75)
